Answer each item with its documented log10(EC50).
Biological target: hT1R2/hT1R3 sweet receptor expressed in HEK293 cell line (Homo sapiens, UniProt Q7RTX0+Q8TE23)
Construct: expressed in transfected cells; host or cells: HEK293 derivative stably expressing Gα15 and hT1R2/hT1R3, clone S-9
Sequence (Q8TE23 20-839): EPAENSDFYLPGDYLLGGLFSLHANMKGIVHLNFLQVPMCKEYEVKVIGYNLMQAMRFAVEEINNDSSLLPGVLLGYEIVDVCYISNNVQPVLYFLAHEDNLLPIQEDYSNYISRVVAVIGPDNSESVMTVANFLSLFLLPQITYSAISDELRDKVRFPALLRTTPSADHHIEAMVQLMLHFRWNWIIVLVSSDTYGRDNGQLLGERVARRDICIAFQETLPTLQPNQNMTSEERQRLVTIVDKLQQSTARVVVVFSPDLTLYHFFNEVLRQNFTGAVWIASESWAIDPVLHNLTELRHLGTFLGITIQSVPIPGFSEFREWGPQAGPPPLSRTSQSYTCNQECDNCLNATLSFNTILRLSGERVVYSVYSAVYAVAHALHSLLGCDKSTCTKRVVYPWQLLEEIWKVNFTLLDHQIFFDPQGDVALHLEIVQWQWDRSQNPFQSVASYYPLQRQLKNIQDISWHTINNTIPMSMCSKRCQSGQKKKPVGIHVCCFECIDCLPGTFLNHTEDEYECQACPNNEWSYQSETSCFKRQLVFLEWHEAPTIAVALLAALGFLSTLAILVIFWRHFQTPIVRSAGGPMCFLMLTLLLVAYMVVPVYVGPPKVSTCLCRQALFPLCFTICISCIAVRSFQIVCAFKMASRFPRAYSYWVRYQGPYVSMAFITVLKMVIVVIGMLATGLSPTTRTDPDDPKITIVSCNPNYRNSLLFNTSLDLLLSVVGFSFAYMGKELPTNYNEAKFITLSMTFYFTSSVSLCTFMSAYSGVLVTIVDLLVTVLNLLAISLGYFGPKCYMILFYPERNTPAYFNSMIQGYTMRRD
Sequence (Q7RTX0 21-852): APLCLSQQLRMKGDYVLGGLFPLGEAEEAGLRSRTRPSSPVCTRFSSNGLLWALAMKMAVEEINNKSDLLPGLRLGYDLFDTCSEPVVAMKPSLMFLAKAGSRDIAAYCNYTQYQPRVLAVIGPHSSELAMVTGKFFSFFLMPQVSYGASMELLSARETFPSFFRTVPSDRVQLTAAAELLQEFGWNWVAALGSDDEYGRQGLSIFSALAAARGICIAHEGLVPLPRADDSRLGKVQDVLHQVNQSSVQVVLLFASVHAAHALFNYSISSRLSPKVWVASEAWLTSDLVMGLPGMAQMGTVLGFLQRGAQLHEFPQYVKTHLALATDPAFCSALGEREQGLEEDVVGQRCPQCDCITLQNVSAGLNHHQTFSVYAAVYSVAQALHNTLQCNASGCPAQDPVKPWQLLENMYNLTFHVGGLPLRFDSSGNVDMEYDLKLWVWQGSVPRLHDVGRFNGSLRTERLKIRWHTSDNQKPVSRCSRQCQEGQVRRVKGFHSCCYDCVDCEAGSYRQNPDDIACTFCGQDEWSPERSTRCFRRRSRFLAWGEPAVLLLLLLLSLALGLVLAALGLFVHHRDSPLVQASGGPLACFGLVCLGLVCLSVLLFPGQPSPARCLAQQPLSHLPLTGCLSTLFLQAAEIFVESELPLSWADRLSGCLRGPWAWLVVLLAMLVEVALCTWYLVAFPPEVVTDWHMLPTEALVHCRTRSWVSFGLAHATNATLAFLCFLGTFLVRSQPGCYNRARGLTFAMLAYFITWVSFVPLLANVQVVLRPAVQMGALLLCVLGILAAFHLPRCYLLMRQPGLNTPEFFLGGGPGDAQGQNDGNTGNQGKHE
Assay: In vitro hT1R2/hT1R3-HEK293 taste receptor activation assay (FLIPR)
Type: cell-based
Details: Table A; read-out: SWEET EC50
Form field - Quantity: EC50; Unit: nM; Scale: log10

response.value for CC(C)CNC(=O)C(C)c1ccc(-c2ccccc2)cc1 (stereo not shown) [Compound A5] (field: log10(EC50)) = 3.63

response.value for CCCNC(=O)C(C)(C)c1ccc(-c2cncc(C#N)c2)cc1 [Compound A90] (field: log10(EC50)) = 2.68

response.value for CC(C)CNC(=O)C(C)(C)c1ccc(-c2cccc(S(C)(=O)=O)c2)cc1 [Compound A38] (field: log10(EC50)) = 3.17

response.value for CC(C)CNC(=O)C(C)(C)c1ccc(-c2ccncn2)cc1 [Compound A33] (field: log10(EC50)) = 3.73

response.value for COc1ccc([C@@H](C)NC(=O)C(C)(C)c2ccc(-c3cncnc3)cc2)cc1 [Compound A88] (field: log10(EC50)) = 2.57

response.value for CC(C)[C@H](C)NC(=O)C(C)(C)c1ccc(-c2cncc(C#N)n2)cc1 [Compound A46] (field: log10(EC50)) = 2.49

response.value for CC(C)CNC(=O)C(C)(C)c1ccc(-c2cccc(C#N)n2)cc1 [Compound A81] (field: log10(EC50)) = 2.83

response.value for CC(C)[C@@H](C)NC(=O)C(C)(C)c1ccc(-c2cncc(C#N)n2)cc1 [Compound A44] (field: log10(EC50)) = 2.32

response.value for CC[C@@H](C)NC(=O)C(C)(C)c1ccc(-c2cncc(COC)c2)cc1 [Compound A58] (field: log10(EC50)) = 3.02

response.value for CCC(CC)CNC(=O)C(C)(C)c1ccc(-c2cncc(C#N)c2)cc1 [Compound A91] (field: log10(EC50)) = 2.79

response.value for Cc1cscc1-c1ccc(C(C)(C)C(=O)NCC(C)C)cn1 [Compound A59] (field: log10(EC50)) = 3.02

response.value for COc1cc(C(C)(C)C(=O)NCC(C)C)ccc1-c1ccccc1 [Compound A76] (field: log10(EC50)) = 2.98

response.value for COc1cccc(-c2ccc(C(C)C(=O)NCC(C)C)cc2)c1 (stereo not shown) [Compound A7] (field: log10(EC50)) = 3.75

response.value for CC(C)CNC(=O)Cc1ccc(-c2ccccc2)cc1 [Compound A39] (field: log10(EC50)) = 3.19

response.value for COCc1cccc(-c2ccc(C(C)(C)C(=O)NCC(C)C)cn2)c1 [Compound A31] (field: log10(EC50)) = 3.58

response.value for CC(C)CNC(=O)C(C)(C)c1ccc(-c2cccc3c2COCOC3)cc1 [Compound A79] (field: log10(EC50)) = 2.83

response.value for CC(C)CNC(=O)Cc1ccc(-c2ccccc2)c(F)c1 [Compound A8] (field: log10(EC50)) = 3.88

response.value for CC(C)CNC(=O)C(C)(C)c1ccc(-n2ccnc2)cc1 [Compound A34] (field: log10(EC50)) = 4.00

response.value for CCCNC(=O)C(C)(C)c1ccc(-c2cccc(COC)c2)cc1 [Compound A78] (field: log10(EC50)) = 2.83

Ref: patent US7842324B2
